Biological target: IDO1 (Homo sapiens, UniProt P14902)
Sequence (P14902 whole entry): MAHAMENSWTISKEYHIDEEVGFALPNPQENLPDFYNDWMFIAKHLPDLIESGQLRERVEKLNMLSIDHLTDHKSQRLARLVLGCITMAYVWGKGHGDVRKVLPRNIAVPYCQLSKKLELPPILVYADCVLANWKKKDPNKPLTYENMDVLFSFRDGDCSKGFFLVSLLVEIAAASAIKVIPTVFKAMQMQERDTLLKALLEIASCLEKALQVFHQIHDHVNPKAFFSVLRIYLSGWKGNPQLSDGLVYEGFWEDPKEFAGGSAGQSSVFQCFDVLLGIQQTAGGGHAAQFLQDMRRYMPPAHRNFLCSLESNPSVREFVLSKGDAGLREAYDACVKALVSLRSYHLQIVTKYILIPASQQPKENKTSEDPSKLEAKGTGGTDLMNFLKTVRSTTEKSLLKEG
Assay: IDO1 Cellular Assay in Hela Cells Stimulated with IFNγ
Format: cell-based
Parameters: endogenous in cells; host or cells: HeLa cells stimulated with IFNγ
Conditions: IFNγ 100 ng/mL, 300 uM L-tryptophan, about 48 hours, fluorescence readout, read-out: IDO1 HELA Cell Assay, IC50
pIC50: −log10 of the molar value. Structures can show the parent of a compound that is named as a salt.
property_measured: pIC50

Study these solved cases before continuing.
molecule: C[C@H](C(=O)Nc1ccc(F)cc1)C12CC(NCc3cccc(C(F)(F)F)c3)(C1)C2 [Example 30, TFA]
measurement_target: IDO1 (Homo sapiens, UniProt P14902)
pIC50: 7.08
//
molecule: CC(C(=O)Nc1ccc(F)cc1)C12CC(Nc3ncnc4ccc(F)cc34)(C1)C2 (single isomer, unassigned) [Example 11]
measurement_target: IDO1 (Homo sapiens, UniProt P14902)
pIC50: 8.49
//
molecule: CC(C(=O)Nc1ccc(F)cc1)C12CC(Nc3cccc(C(F)(F)F)n3)(C1)C2 (centres unmarked) [Example 26]
measurement_target: IDO1 (Homo sapiens, UniProt P14902)
pIC50: 7.13

a. CC(C(=O)Nc1ccc(F)cc1)C12CC(Nc3cc(C(F)(F)F)ncn3)(C1)C2 (centres unmarked) [Example 16]
b. CC(C(=O)Nc1ccc(F)cc1)C12CC(Nc3nccc4cccnc34)(C1)C2 (centres unmarked) [Example 12]
c. CC(C(=O)Nc1ccc(F)cc1)C12CC(Nc3ccnc(C(F)(F)F)c3)(C1)C2 (centres unmarked) [Example 24]
Query :: Write the entries in order, lowest recorded pIC50 first. # the answer lists labels in the order requested
Result :: b, a, c
(b: 6.23, a: 7.57, c: 7.90)

a. Cc1nccc(NC23CC([C@H](C)C(=O)Nc4ccc(Cl)cc4)(C2)C3)n1 (single isomer, unassigned) [Example 2]
b. C[C@H](C(=O)Nc1ccc(F)cc1)C12CC(N(C)Cc3ccc(Cl)c(Cl)c3)(C1)C2 [Example 33, TFA]
Query :: Between a and b , which one shows the larger pIC50 value? API: response body contains the label of the selected item.
Result :: b
(b: 8.05, a: 7.48)

====

Target: IDO1 (Homo sapiens, UniProt P14902)
Experiment: IDO1 Cellular Assay in Hela Cells Stimulated with IFNγ
Format: cell-based
Design: endogenous in cells; host or cells: HeLa cells stimulated with IFNγ
Conditions: IFNγ 100 ng/mL, 300 uM L-tryptophan, about 48 hours, fluorescence readout, read-out: IDO1 HELA Cell Assay, IC50
property_measured: IC50 (nM)

P. CC(C(=O)Nc1ccc(F)cc1)C12CC(Nc3ncccc3C(F)(F)F)(C1)C2 (stereo not drawn)
Q. CC(C(=O)Nc1ccc(F)cc1)C12CC(Nc3c(C(F)(F)F)ccnc3F)(C1)C2 (stereo not drawn)
R. C[C@H](C(=O)Nc1ccc(F)cc1)C12CC(Nc3ccnc(C(F)(F)F)c3)(C1)C2
Query :: Would you mind ranking these compounds by ascending IC50? # the answer lists labels in the order requested
Result :: R, Q, P
